# Lookup of reported pIC50 keyed by entry
Assay: Cytotoxicity against human MCF7 cells assessed as reduction in cell viability after 72 hrs by MTT assay
Type: functional, cell-based
Conditions: MCF7, 72 h
pIC50: −log10 of the molar value.

| SMILES_ENTRY | CENSORING_SIGN | pIC50 |
| --- | --- | --- |
| c1ccc(-c2nnc3nnc(N4CCOCC4)nn23)cc1 | = | 5.05 |
| Cc1cc(C)n(-c2nnc3nnc(Cc4ccccc4)n3n2)n1 | = | 4.26 |
| Cc1cc(C)n(-c2nnc3nnc(-c4ccccc4Cl)n3n2)n1 | = | 4.71 |
| Clc1ccccc1-c1nnc2nnc(N3CCCC3)nn12 | = | 4.53 |
| Fc1ccc(-c2nnc3nnc(N4CCOCC4)nn23)cc1 | = | 4.48 |
| Cc1nnc2nnc(N3CCOCC3)nn12 | = | 4.41 |
| Cc1cc(C)n(-c2nnc3nnc(C)n3n2)n1 | = | 4.75 |
| Fc1ccc(-c2nnc3nnc(N4CCCCC4)nn23)cc1 | = | 4.38 |
| Cc1cc(C)n(-c2nnc3nnc(C4CCCCC4)n3n2)n1 | = | 4.89 |
| COc1ccc(-c2nnc3nnc(N4CCOCC4)nn23)cc1 | < | 4.00 |
| Cc1nnc2nnc(N3CCCC3)nn12 | = | 4.35 |
| C1CCC(c2nnc3nnc(N4CCCC4)nn23)CC1 | = | 4.42 |
| Fc1ccc(-c2nnc3nnc(N4CCCC4)nn23)cc1 | < | 4.00 |
| CCc1nnc2nnc(N3CCCC3)nn12 | = | 4.33 |
| CCc1nnc2nnc(-n3nc(C)cc3C)nn12 | = | 4.44 |
| Cc1cc(C)n(-c2nnc3nnc(C(C)C)n3n2)n1 | = | 4.47 |
| O=[N+]([O-])c1ccc(-c2nnc3nnc(N4CCCCC4)nn23)cc1 | < | 4.00 |
| Clc1ccc(-c2nnc3nnc(N4CCCC4)nn23)c(Cl)c1 | = | 4.71 |
| Cc1cc(C)n(-c2nnc3nnc(-c4ccc(Cl)cc4)n3n2)n1 | = | 5.25 |
| CCCCCc1nnc2nnc(-n3nc(C)cc3C)nn12 | = | 4.66 |
| Cc1ccc(-c2nnc3nnc(-n4nc(C)cc4C)nn23)cc1 | = | 4.44 |
| CC(C)(C)c1nnc2nnc(N3CCCC3)nn12 | = | 4.26 |
| COc1ccc(-c2nnc3nnc(N4CCCCC4)nn23)cc1 | < | 4.00 |
| CCCCCc1nnc2nnc(N3CCCC3)nn12 | = | 4.37 |

====

Assay: Cytotoxicity against human MCF7 cells assessed as reduction in cell viability after 72 hrs by MTT assay
Type: functional, cell-based
Conditions: MCF7, 72 h
# Lookup of reported IC50 keyed by entry
MEASUREMENT_TYPE: IC50

| SMILES_ENTRY | MEASUREMENT_TYPE | VALUE_MEASURED |
| --- | --- | --- |
| O=[N+]([O-])c1ccc(-c2nnc3nnc(N4CCOCC4)nn23)cc1 | IC50 | > 100 µM |
| c1ccc(-c2nnc3nnc(N4CCCC4)nn23)cc1 | IC50 | > 100 µM |
| O=[N+]([O-])c1ccc(-c2nnc3nnc(N4CCCC4)nn23)cc1 | IC50 | > 100 µM |
